# Tested on: soybean
# protocolSummary: Test C preemergence
# Assay type: in vivo, Glycine max
# experimentalContext: Preemergence, 125 g ai/ha; 0 to 100 scale, 0 no effect, 100 complete control
Collected Plant response rating, Soybean values appear next to each entry.

molecule	Plant response rating, Soybean
Cc1cccc2c1OC(C(F)(F)F)CN2C(=O)c1ccnc(-n2cnc(C(C)(C)C)n2)c1 (stereo not shown)	20
CCOC[C@H]1CN(C(=O)c2cc(-n3cnc(C(C)C)n3)ccc2OC)c2cccc(Cl)c2O1	100
Cc1ncn(-c2ccc(C)c(C(=O)N3CC(C(F)(F)F)Oc4c(Cl)cccc43)c2)n1 (stereo not shown)	50
Cc1ccc(-n2cnc(C(C)(C)C)n2)cc1C(=O)N1CC(C(F)(F)F)Oc2c(Cl)cccc21 (stereo not shown)	90
CNc1ncn(-c2cccc(C(=O)N3C[C@H](C)Oc4c(C)cccc43)c2)n1	0
CCc1ncn(-c2cc(C(=O)N3CC(C(F)(F)F)Oc4c(Cl)cccc43)ccn2)n1 (racemic)	0
CC(C)c1ncn(-c2ccc(OS(=O)(=O)C(F)(F)F)c(C(=O)N3C[C@H](C)Oc4c(Cl)cccc43)c2)n1	0

* * *

# Test system: wheat
# protocolSummary: Test C preemergence
# Assay type: in vivo, Triticum aestivum
# experimentalContext: Test C, preemergence, 125 g ai/ha; 0 to 100 scale (0 no effect, 100 complete control)

molecule	Wheat plant response rating
COC[C@H]1CN(C(=O)c2cc(-n3cnc(C4CC4)n3)ccc2OC)c2cccc(Cl)c2O1 [Compound 235]	30
Cc1ccc(-n2cnc(CC3CC3)n2)cc1C(=O)N1C[C@H](C)Oc2c(Cl)cccc21 [Compound 273]	0
C[C@H]1CN(C(=O)c2cccc(-n3cnc(C(C)(C)O)n3)c2)c2cccc(Cl)c2O1 [Compound 169]	30
CCn1cnc(-c2cccc(C(=O)N3C[C@H](C)Oc4c(Cl)cccc43)c2)n1 [Compound 173]	0

* * *

# Test system: blackgrass
# protocolSummary: Test C postemergence
# Assay type: in vivo, Alopecurus myosuroides
# experimentalContext: Postemergence, 125 g ai/ha; 0 to 100 scale (0 no effect, 100 complete control), 10 days
Param label: returns condition met when Plant response rating, Blackgrass < 10, returns condition not met otherwise, including exact equality.

compound	discreteLabel
COc1ncn(-c2cccc(C(=O)N3C[C@H](C)Oc4c(C)cccc43)c2)n1	condition not met
COC[C@H]1CN(C(=O)c2cc(-n3cnc(C(C)(C)O)n3)ccc2OC)c2cccc(Cl)c2O1	condition met
CC(C)Oc1ncn(-c2cccc(C(=O)N3C[C@H](C)Oc4c(Cl)cccc43)c2)n1	condition met
CC(C)c1ncn(-c2ccc(OS(C)(=O)=O)c(C(=O)N3C[C@H](C)Oc4c(Cl)cccc43)c2)n1	condition not met
CCOC[C@H]1CN(C(=O)c2cc(-n3cnc(C4CCC4)n3)cc3c2OCCO3)c2cccc(Cl)c2O1	condition met
CCOC[C@H]1CN(C(=O)c2cc(-n3cnc(C(C)C)n3)cc3c2OCO3)c2cccc(Cl)c2O1	condition not met
CC(C)c1ncn(-c2cccc(C(=O)N3CC(C(F)(F)F)Oc4c(Cl)cccc43)c2)n1 (stereo not drawn)	condition not met
CCOC[C@H]1CN(C(=O)c2cc(-n3cnc(C(C)(C)C)n3)cc3c2OCCO3)c2cccc(Cl)c2O1	condition met
Cc1cccc2c1O[C@@H](C)CN2C(=O)c1cccc(-n2cnc([N+](=O)[O-])n2)c1	condition met
CCOC[C@H]1CN(C(=O)c2cc(-n3cnc(CC)n3)ccc2C)c2cccc(Cl)c2O1	condition not met
Cc1cccc2c1O[C@@H](C)CN2C(=O)c1cc(-n2cnc(C(C)C)n2)cc2c1CCO2	condition not met
COC[C@H]1CN(C(=O)c2cc(-n3cnc(C(C)C)n3)ccc2OC)c2cccc(Cl)c2O1	condition not met
Cc1ncnn1-c1cc(C(=O)N2CC(C(F)(F)F)Oc3c(Cl)cccc32)ccn1 (racemic)	condition met

* * *

Collected Plant response rating, Wheat values appear next to each entry.
# System: wheat
# protocolSummary: Test C postemergence
# Assay type: in vivo, Triticum aestivum
# experimentalContext: 125 g ai/ha, postemergence, 10 days; 0 to 100 scale, 0 no effect, 100 complete control

compound	Plant response rating, Wheat
COc1ccc(-n2cncn2)cc1C(=O)N1C[C@H](C)Oc2c(Cl)cccc21	50
CC(C)c1ncn(-c2cc3c(c(C(=O)N4C[C@H](C)Oc5c(Cl)cccc54)c2)OCCCO3)n1	30
CC(C)c1ncn(-c2ccc(S(=O)(=O)C(F)(F)F)c(C(=O)N3C[C@H](C)Oc4c(Cl)cccc43)c2)n1	0
Cc1ccc(-n2cnc(C[S+](C)[O-])n2)cc1C(=O)N1C[C@H](C)Oc2c(Cl)cccc21 (stereo partly drawn)	20
COc1ccc(-n2cnc(C(C)C)n2)cc1C(=O)N1C[C@H](C)Oc2c(F)cccc21	80
CCc1c(F)cc(-n2cnc(C(C)C)n2)cc1C(=O)N1C[C@H](C)Oc2c(Cl)cccc21	20
C[C@H]1CN(C(=O)c2cc(-n3cnc(C4CCC4)n3)cc3c2OCCO3)c2cccc(Cl)c2O1	20
COC[C@H]1CN(C(=O)c2cc(-n3cncn3)ccc2C)c2cccc(Cl)c2O1	30
COC[C@H]1CN(C(=O)c2cc(-n3cnc(C(C)(C)C)n3)ccc2C)c2cccc(Cl)c2O1	20
CCc1ncn(-c2ccc(C)c(C(=O)N3CC(C(F)(F)F)Oc4c(Cl)cccc43)c2)n1 (single isomer, unassigned) [Compound 218]	60
COc1cc(C(=O)N2C[C@H](C)Oc3c(Cl)cccc32)cc(-n2cnc(C3CCC3)n2)c1	20
C[C@H]1CN(C(=O)c2cc(-n3cnc(C4CC4)n3)cc3c2OCCO3)c2cccc(Cl)c2O1	60
CCc1ncn(-c2ccc(C)c(C(=O)N3C[C@H](COC)Oc4c(Cl)cccc43)c2)n1	40
CCc1ncn(-c2ccc(C)c(C(=O)N3CC(C(F)(F)F)Oc4c(Cl)cccc43)c2)n1 (racemic) [Compound 290]	30
Cc1cccc2c1O[C@@H](C)CN2C(=O)c1cccc(-n2cnc(C(C)(C)O)n2)c1	70
CCc1ncn(-c2ccc(OC)c(C(=O)N3C[C@H](COC)Oc4c(Cl)cccc43)c2)n1	50
COc1cc(C(=O)N2C[C@H](C)Oc3c(Cl)cccc32)cc(-n2cnc(C)n2)c1	30
Cc1ccc(-n2cnc(C3(C(F)(F)F)CCC3)n2)cc1C(=O)N1C[C@H](C)Oc2c(Cl)cccc21	10
CC(C)c1ncn(-c2cc3c(c(C(=O)N4C[C@H](C)Oc5c(Cl)cccc54)c2)OCO3)n1	20
Cc1ccc(-n2cnc(CS(C)(=O)=O)n2)cc1C(=O)N1C[C@H](C)Oc2c(Cl)cccc21	30
COc1ccc(-n2cncn2)cc1C(=O)N1C[C@H](C)Oc2c(F)cccc21	80
Cc1c(F)cc(-n2cnc(C(C)C)n2)cc1C(=O)N1C[C@H](C)Oc2c(Cl)cccc21	20
Cc1ccc(-n2cnc(C(C)(F)F)n2)cc1C(=O)N1C[C@H](C)Oc2c(Cl)cccc21	30
COc1ccc(-n2cnc(C(C)(C)O)n2)cc1C(=O)N1C[C@H](C)Oc2c(Cl)cccc21	50

* * *

Collected Plant response rating, Barnyardgrass values appear next to each entry.
# Tested on: barnyardgrass
# protocolSummary: Test C postemergence
# Assay type: in vivo, Echinochloa crusgalli
# experimentalContext: Postemergence, 500 g ai/ha, 10 days, visual 0 to 100 scale (0 no effect, 100 complete control)
readoutType: Plant response rating, Barnyardgrass

molSmiles	readoutType	measuredValue
COC[C@H]1CN(C(=O)c2cc(-n3cnc(C(C)(C)C)n3)ccc2C)c2cccc(Cl)c2O1	Plant response rating, Barnyardgrass	90
COC[C@H]1CN(C(=O)c2cc(-n3cncn3)ccc2OC)c2cccc(Cl)c2O1	Plant response rating, Barnyardgrass	100
Cc1ccc(-n2cnc(C(C)C)n2)cc1C(=O)N1C[C@H](C)Oc2c1cccc2C(F)(F)F	Plant response rating, Barnyardgrass	50
Cc1ccc(-n2cnc(C3(C)COC3)n2)cc1C(=O)N1C[C@H](C)Oc2c(Cl)cccc21	Plant response rating, Barnyardgrass	90
COc1cc(C(=O)N2C[C@H](C)Oc3c(Cl)cccc32)cc(-n2cnc(C(C)(C)C)n2)c1	Plant response rating, Barnyardgrass	30

* * *

# Tested on: rice
# protocolSummary: Test D flooded paddy test
# Type: in vivo, Oryza sativa
# experimentalContext: 250 g ai/ha, applied to paddy water, visual rating after 13 to 14 days, scale 0 to 100 (0 no effect, 100 complete control)
readoutType: Plant response rating, Rice (Flood)

compound	readoutType	measuredValue
CCOC[C@H]1CN(C(=O)c2cc(-n3cnc(C(C)(C)C)n3)cc3c2OCO3)c2cccc(Cl)c2O1	Plant response rating, Rice (Flood)	0
Cc1cccc2c1OC(C(F)(F)F)CN2C(=O)c1cccc(-n2cnc(C(C)C)n2)c1 (racemic)	Plant response rating, Rice (Flood)	15
Cc1ccc(-n2cnc(CC3CC3)n2)cc1C(=O)N1C[C@H](C)Oc2c(Cl)cccc21	Plant response rating, Rice (Flood)	0
COc1cc(C(=O)N2C[C@H](C)Oc3c(Cl)cccc32)cc(-n2cnc(C3CCC3)n2)c1	Plant response rating, Rice (Flood)	0
Cc1ccc(-n2cncn2)cc1C(=O)N1CC(C(F)(F)F)Oc2c(Cl)cccc21 (stereo not drawn)	Plant response rating, Rice (Flood)	0
C[C@H]1CN(C(=O)c2cccc(-n3cnc(OS(C)(=O)=O)n3)c2)c2cccc(Cl)c2O1	Plant response rating, Rice (Flood)	0
COc1ccc(-n2cnc(C(C)C)n2)cc1C(=O)N1C[C@H](C)Oc2c(C)cccc21	Plant response rating, Rice (Flood)	15
COc1ccc(-n2cnc(C(C)(C)O)n2)cc1C(=O)N1C[C@H](C)Oc2c(Cl)cccc21	Plant response rating, Rice (Flood)	20
Cc1cccc2c1O[C@@H](C)CN2C(=O)c1cccc(-n2nccn2)c1	Plant response rating, Rice (Flood)	0
